Test: SK-BR-3 cell growth inhibitors, pilot screen, 24 h, human (AID 572);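 further: compound exposure lasted between 18 and 24 h rather than exactly 24 h; 100% = carrier-treated control wells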
Details: SK-BR-3 viability, CellTiter-Glo luminescence, at 10 µM, active compounds read low
In this section we review reported viability values for a set of molecules.
Give just the number in %; leave the unit off.

In: What value of viability has been recorded for this entry: COc1ccccc1N1CCN(CC(O)COc2cccc3ccccc23)CC1 (stereo not given)
Out: 83

In: What value of viability has been recorded for this entry: `CCN(CC)c1nc(N(CC)CC)[nH]c(=O)n1`
Out: 112

In: What value of viability has been recorded for this entry: O=C(C1CCCCC1)N1CC(=O)N2CCc3ccccc3C2C1 (stereo not given)
Out: 104
